Origin of measurements: patent US20220056137A1

List of koff values.
Target: T1, human PD-L1 protein (soluble) (human, UniProt Q9NZQ7 19-239)
T1 construct: also called PD-L1 (R&D Systems); His-tagged PD-L1 protein
T1 sequence (Q9NZQ7 19-239 limits assumed): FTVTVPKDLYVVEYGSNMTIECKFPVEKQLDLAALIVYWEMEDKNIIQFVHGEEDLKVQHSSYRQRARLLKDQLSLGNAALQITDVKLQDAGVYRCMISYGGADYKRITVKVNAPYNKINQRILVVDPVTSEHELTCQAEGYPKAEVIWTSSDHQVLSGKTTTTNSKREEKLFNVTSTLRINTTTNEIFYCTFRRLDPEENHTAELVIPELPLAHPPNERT
Assay: SPR, mAb captured on anti-human IgG Fc, PD-L1 as analyte;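 note: array SPR with mAb supernatants captured at several densities, PD-L1 injected for 5 min then 15 min dissociation, non-regenerative kinetic series, double-referenced against interspot surface and blank injection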
Kindly provide the numeric value in s⁻¹ only, without the unit symbol.

Sample records with koff:
antibody A19 (antibody, V domains shown, Tested as full-length mAb made in CHO cells; also called L19H19) VH: QVQLVESGGGVVQPGRSLRLSCVASGFTFSSYGMHWVRQAPGKGLEWVAVIWYDGSNKFYIDSVKGRFTISRDNSKNTLYLQMNSLRAEDTAVYYCARGGAVAGTSWYYYYGMDVWGQGTTVTVSS VL: DIQLTQSPSFLSASVGDRVTITCRASQGISSYLAWYQQKPGKAPKLLIYDASTLQSGVPSRFSGSGSGTEFTLTISSLQPEDFAIYYCQQLNTYPLTFGGGTKVEIK | 0.0035
antibody A1 (antibody, V domains shown, Tested as full-length mAb made in CHO cells; also called L1H1) VH: QVQLVQSGAEVKKPGASVKVSCKASGFTFTSYDINWVRQATGQGLEWMGWMHPNSGITGYAQKFQGRVTMTRNTSISTAYMELSSLSSEDTAVYFCARYYYVSGSYDYWGQGTLVTVSS VL: EIVMTQSPATLSLSPGERATLSCWASQSVSSSYLSWYQQKPGQAPRLLIYGASTRATGIPARFSGSGSGTDFTLTISSLQPEDFAVYYCQQDYNLPYTFGQGTKLEIK | 0.00013
antibody A14 (antibody, V domains shown, Tested as full-length mAb made in CHO cells; also called L14H14) VH: QVQLVESGGGVVQPGRSLRLSCAASGFTFSSYGMHWVRQAPGKGLEWVAVIWYDGSVKYYADSVKGRFTISRDNSKNTLYLQMNSLRAEDTAVYYCARDRTGVPFDYWGQGTLVTVSS VL: EIVMTQSPATLSLSPGERATLSCRASQSVSSSYLSWYQQKPGQAPRLLIYGASTRATGIPARFSGSGSGTDFTLTISSLQPEDFAVYYCQQDYNLPHTFGQGTKLEIK | 0.038

Lab note: measured koff of antibody A12 (antibody, V domains shown, Tested as full-length mAb made in CHO cells; also called L12H12) VH: QVQLVESGGGVVQPGRSLRLSCAASGFTFSSYGMHWVRQAPGKGLEWVAVIWYDGSNKSYADSVKGRFTFSRDNSKNTLYLQMNSLRAEDTAVYYCARDMDYFGLDVWGQGTTVTVSS VL: DIQMTQSPSSLSASVGDRVTITCRASQGIRNDLGWYQQKPGKAPKRLIYAASSLQSGVPSRFSGSGSGTEFTLTISSLQPEDFATYYCLQHNSYPRTFGQGTKVEIK was 0.013
